binders and their reported Fold Activation of Latent TGF-β over Baseline (soft agar NRK colony formation)
# study_system: recombinant small latent TGF-β
# assay_procedure: cell-based or functional assay
Enter your answer as a number in fold over baseline; do not include the unit.

KRFK [KRFK (SEQ ID NO:5)]    2

State its Fold Activation of Latent TGF-β over Baseline (soft agar NRK colony formation): KRFKQDGGWSHWSP [KRFKQDGGWSHWSP (SEQ ID NO:14)]
2.3

State its Fold Activation of Latent TGF-β over Baseline (soft agar NRK colony formation): KRFKQDGGWWSP [KRFKQDGGWWSP (SEQ ID NO:17)]
2.1

State its Fold Activation of Latent TGF-β over Baseline (soft agar NRK colony formation): KRFKQDGGWSHWSPWSS [KRFKQDGGWSHWSPWSS (SEQ ID NO:15)]
2

State its Fold Activation of Latent TGF-β over Baseline (soft agar NRK colony formation): KRFKQDGG [KRFKQDGG (SEQ ID NO:9)]
2.1

State its Fold Activation of Latent TGF-β over Baseline (soft agar NRK colony formation): KRFKQDGGWSHW [KRFKQDGGWSHW (SEQ ID NO:16)]
1.9
